# MEASUREMENT_TARGET: human GLP1R (Homo sapiens)
# Sequence (P43220 24-463): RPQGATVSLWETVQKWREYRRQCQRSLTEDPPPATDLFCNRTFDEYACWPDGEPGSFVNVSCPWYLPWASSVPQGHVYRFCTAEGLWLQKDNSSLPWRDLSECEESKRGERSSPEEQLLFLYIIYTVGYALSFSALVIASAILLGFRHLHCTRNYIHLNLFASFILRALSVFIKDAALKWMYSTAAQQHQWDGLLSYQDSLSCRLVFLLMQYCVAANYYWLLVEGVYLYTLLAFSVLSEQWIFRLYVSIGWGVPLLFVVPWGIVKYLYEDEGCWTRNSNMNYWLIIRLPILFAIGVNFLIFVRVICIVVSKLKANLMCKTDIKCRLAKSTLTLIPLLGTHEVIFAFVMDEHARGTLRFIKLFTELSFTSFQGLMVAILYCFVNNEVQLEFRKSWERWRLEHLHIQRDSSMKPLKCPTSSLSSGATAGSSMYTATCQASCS
# RUN_DESCRIPTION: Luciferase reporter assay, HEK293/CRE-Luc/hGLP1R cells (Example 11)
# Assay type: cell-based
# Parameters: engineered to express full-length human GLP1R, cynomolgus GLP1R; expressed in transfected cells; host or cells: HEK293/CRE-Luc
# ASSAY_CONTEXT: Table 11; Experiment A
Where a SMILES comes first, the peptide text is derived from it. [ ]: non-standard residue; d: D form. The star is where a group is joined. Bip(2'-Et,4'-O(CH2)4NH2) = CCc1cc(OCCCCN)ccc1-c1ccc(C[C@H](N)C(=O)O)cc1; Malonyl(2,2-Me2,histaminyl) = CC(C)(C(=O)NCCc1cnc[nH]1)C(=O)*; Nva(5-(3,5-Me2Ph)) = Cc1cc(C)cc(CCC[C@H](N)C(=O)O)c1; Ala(1H-tetrazol-5-yl) = N[C@@H](Cc1nnn[nH]1)C(=O)O; αMePhe(2-F) = C[C@](N)(Cc1ccccc1F)C(=O)O; NHPh = c1ccc(N*)cc1
PARAMETER: EC50 (pM)
One number for each entry, in pM.

1. CCc1cc(OCCCCN)ccc1-c1ccc(C[C@H](NC(=O)[C@H](CC(=O)O)NC(=O)[C@H](CO)NC(=O)[C@@H](NC(=O)[C@](C)(Cc2ccccc2F)NC(=O)[C@@H](NC(=O)CNC(=O)[C@H](Cc2nn[nH]n2)NC(=O)C(C)(C)C(=O)NCCc2cnc[nH]2)[C@@H](C)O)[C@@H](C)O)C(=O)N[C@@H](CCCc2cc(C)cc(C)c2)C(=O)Nc2ccccc2)cc1 [P23] ({Malonyl(2,2-Me2,histaminyl)}-[Ala(1H-tetrazol-5-yl)]GT[αMePhe(2-F)]TSD[Bip(2'-Et,4'-O(CH2)4NH2)][Nva(5-(3,5-Me2Ph))]-NHPh)	5.15

Okay, next one:
Reported EC50 of CCc1cc(OCCCCN)ccc1-c1ccc(C[C@H](NC(=O)[C@H](CC(=O)O)NC(=O)[C@H](CO)NC(=O)[C@@H](NC(=O)[C@](C)(Cc2ccccc2F)NC(=O)[C@@H](NC(=O)CNC(=O)[C@H](Cc2nn[nH]n2)NC(=O)C(C)(C)C(=O)NCCc2cnc[nH]2)[C@@H](C)O)[C@@H](C)O)C(=O)N[C@@H](CCCc2cc(C)cc(C)c2)C(N)=O)cc1 [P9] ({Malonyl(2,2-Me2,histaminyl)}-[Ala(1H-tetrazol-5-yl)]GT[αMePhe(2-F)]TSD[Bip(2'-Et,4'-O(CH2)4NH2)][Nva(5-(3,5-Me2Ph))]-NH2) : 3.97

Attribution: patent US20230330254A1
